# System: Yap1 mRNA
# Assay Info: Antisense inhibition of human Yap1 in A-431 cells by cEt gapmers, single dose (Example 3, RTS36584)
# Assay type: cell-based
# Test Settings: Table 26; Yap1 mRNA by 3-10-3 cEt gapmers targeting SEQ ID NO.: 1, and 2; percent of untreated control
Strand notation (5' to 3'): a small letter for the sugar, then the base; units joined by * are phosphorothioate-linked, units joined directly phosphodiester-linked; [ ] holds rarer units or linkages, { } end groups; capitals alone tell only the bases. k = constrained ethyl (cEt); [5mC] = 5-methylcytosine; d = 2'-deoxy (DNA)
Quantity Measured: YAP1 (% UTC)
# unit: % UTC | format: bare number

Here's what some known entries look like.
>>> obs_value("1075916 (antisense k[5mC]*kA*kA*dT*dT*dT*dA*dG*dG*dA*dT*dG*d[5mC]*k[5mC]*kT*kT) [compound 1075916]")
6
>>> obs_value("1076140 (kA*k[5mC]*kG*dA*dA*dA*dA*dA*dA*dG*d[5mC]*d[5mC]*dA*kA*k[5mC]*kA; antisense) [compound 1076140]")
28

Incoming: # input substance: 1074220 (antisense kA*kA*kT*dG*dA*dG*d[5mC]*dT*d[5mC]*dG*dA*dA*d[5mC]*kA*kT*kG) [compound 1074220] ; wanted: its YAP1 (% UTC)
Outgoing: 22

----------
Entries and their Spleen weight values follow.
# Assay Info: Tolerability in Balb/c mice, body and organ weights (Example 11)
# Type: in vivo
# Test Settings: 50 mg/kg subcutaneously twice a week for four weeks, end of study
Strand notation (5' to 3'): a small letter for the sugar, then the base; units joined by * are phosphorothioate-linked, units joined directly phosphodiester-linked; [ ] holds rarer units or linkages, { } end groups; capitals alone tell only the bases. k = constrained ethyl (cEt); [5mC] = 5-methylcytosine; d = 2'-deoxy (DNA)
Quote the value and follow it with the unit of measurement.

Observe how each entry below is paired with its result.
>>> obs_value("716454 (antisense k[5mC]*kG*kA*dG*dA*dT*dT*dT*dA*dA*dA*dT*dA*kA*kG*kG) [compound 716454]")
"0.14 g"
>>> obs_value("715415 (k[5mC]*kG*kA*dA*d[5mC]*dA*dT*dG*d[5mC]*dT*dG*dT*dG*kG*kA*kG; antisense) [compound 715415]")
"0.17 g"

Read the next record carefully.
Incoming: Given the entry 716481 (antisense kT*k[5mC]*kA*dG*d[5mC]*dA*dT*dA*dG*dA*dA*dG*dT*kA*kG*kG) [compound 716481] , report its measured Spleen weight.
Outgoing: 0.13 g

----------
# Assay Info: Cynomolgus monkey tolerability, body and organ weight measurements (Example 34)
# Format: in vivo
# Test Settings: cynomolgus monkeys, 35 mg/kg subcutaneously, necropsy
Listed substances paired with reported Kidney weight
Answer format reminder: number followed by unit.

>>> obs_value("1198605 (GTAATATTGCAATCTG; modified gapmer, further chemistry not given here) [compound 1198605]")
"15 g"
>>> obs_value("1198440 (AAGTGTATGTCAGAAG; cEt, 2'-MOE, 5-methylcytosine, phosphorothioate modifications, further chemistry not given here) [compound 1198440]")
"15 g"
>>> obs_value("1198439 (AGTGTATGTCAGAAGA; sugar, 5-methylcytosine, phosphorothioate modifications, further chemistry not given here) [compound 1198439]")
"15 g"
>>> obs_value("958499 (ATTAGAGTATGTGGCA; 3-10-3 cEt gapmer, further chemistry not given here) [compound 958499]")
"15 g"
>>> obs_value("1076453 (GTAATATTGCAATCTG; 3-10-3 cEt gapmer, further chemistry not given here) [compound 1076453]")
"16 g"
>>> obs_value("1198872 (TGTATGTCAGAAGAGT; chemically modified gapmer, further chemistry not given here) [compound 1198872]")
"15 g"
>>> obs_value("1197270 (TTAAAGTGTATGTCAG; cEt gapmer with 2'-OMe nucleoside, phosphorothioate, further chemistry not given here) [compound 1197270]")
"17 g"
>>> obs_value("1198831 (CACTTTTACATTAGGA; chemically modified gapmer, further chemistry not given here) [compound 1198831]")
"14 g"

Incoming: Fill in the blank: the reported Kidney weight of 1198623 (CTAAGTAAGGTTTCCC; modified gapmer, further chemistry not given here) [compound 1198623] is ____.
Outgoing: 13 g

Incoming: If you can, please state the reported Kidney weight value of 1198728 (TATTAGAGTATGTGGC; modified gapmer, further chemistry not given here) [compound 1198728] .
Outgoing: 15 g

These entries and their values trace back to patent US11214803B2.
